test_system: T1, Peptide 8: Biotin-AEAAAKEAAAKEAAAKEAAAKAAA-Tyr-acid (N-terminal biotin; C-terminal acid)
T1 construct: control peptide without PC
T1 peptide: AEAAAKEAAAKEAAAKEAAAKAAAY
experimental_protocol: scFv ELISA
Reported OD450 values for the following binders.
Express the result in OD450 but write the number alone.

>>> numeric_result("PcOxP_DB02_E10 (scFv, V domains shown, scFv in periplasmic extract) VH: EVQLLESGGGLVQPGGSLRLSCAASGFTFSDQYMEWVRQAPGKGLEWVAASRNKANDYQTEYADSVKGRFTISRDNSKNTLYLQMNSLRAEDTAVYYCARDYYGSSYWYFDVWGQGTLVTVSS VL: DIQMTQSPSSLSASVGDRVTITCTASESLYSGKHKVHYLAWYQQKPGKAPKLLIYGASNLQIGVPSRFSGSGSGTDFTLTISSLQPEDFATYYCAQFYYYPLTFGGGTKVEIK")
0.04

### Prompt # lookup: OD450 of PcOxP_DB03_G02 (scFv, V domains shown, scFv in periplasmic extract) VH: EVQLLESGGGLVQPGGSLRLSCAASGFTFSDGYIEWVRQAPGKGLEWVAASRNKANDYTTEYADSVKGRFTISRDNSKNTLYLQMNSLRAEDTAVYYCARDYYGSSYWYFDVWGQGTLVTVSS VL: DIQMTQSPSSLSASVGDRVTITCTASEELYSSKHKVHYLAWYQQKPGKAPKLLIYGASNRYIGVPSRFSGSGSGTDFTLTISSLQPEDFATYYCAQFYSYPLTFGGGTKVEIK
### Response 0.05

### Prompt Check PcOxP_DB01_C03 (scFv, V domains shown, scFv in periplasmic extract) VH: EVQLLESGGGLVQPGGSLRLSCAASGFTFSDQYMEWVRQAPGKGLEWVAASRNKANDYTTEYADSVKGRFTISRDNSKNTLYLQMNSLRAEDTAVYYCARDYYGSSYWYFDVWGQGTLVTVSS VL: DIQMTQSPSSLSASVGDRVTITCTASESLYSSKHKVHYLAWYQQKPGKAPKLLIYGASNRYIGVPSRFSGSGSGTDFTLTISSLQPEDFATYYCAQFYQYPLTFGGGTKVEIK too.
### Response 0.05

### Prompt Check PcOxP_DB03_A11 (scFv, V domains shown, scFv in periplasmic extract) VH: EVQLLESGGGLVQPGGSLRLSCAASGFTFSSYYMEWVRQAPGKGLEWVAASRNQANDYTTEYADSVKGRFTISRDNSKNTLYLQMNSLRAEDTAVYYCARDYYGSSYWYLDVWGQGTLVTVSS VL: DIQMTQSPSSLSASVGDRVTITCTASESLYSSKHKVHYLAWYQQKPGKAPKLLIYGADNRYIGVPSRFSGSGSGTDFTLTISSLQPEDFATYYCAQFYHYPLTFGGGTKVEIK too.
### Response 0.05

### Prompt Check PcOxP_DB02_E06 (scFv, V domains shown, scFv in periplasmic extract) VH: EVQLLESGGGLVQPGGSLRLSCAASGFTFSDEYMEWVRQAPGKGLEWVAASRGKGNSYTTEYADSVKGRFTISRDNSKNTLYLQMNSLRAEDTAVYYCARDYYGSSYWYFDVWGQGTLVTVSS VL: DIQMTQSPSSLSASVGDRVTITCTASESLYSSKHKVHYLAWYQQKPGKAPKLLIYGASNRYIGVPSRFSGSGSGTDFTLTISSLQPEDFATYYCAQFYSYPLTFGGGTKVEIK too.
### Response 0.04

Values compiled from patent US20250320312A1.
